- ASSAY COMMENT: Cytotoxicity by CCK8 analysis in HT-29 cells
- Format: cell-based, human
- EXPERIMENTAL CONTEXT: human, HT-29 cells, 10 μm; read-out: Cell viability (%)
ASSAY ENDPOINT: viability at 12 h, 10 µM (%)

Brc1ccc(NCc2nc3ccccc3o2)cc1 [HDL-16] : 103
